Target: progesterone receptor (Homo sapiens)
Construct: The source of the progesterone receptor is the cytosolic fraction of MCF-7 cells (human breast cancer cell line); endogenous in cells; host or cells: MCF-7 cells (human breast adenocarcinoma), cytosolic fraction, 10 nM estradiol for 24 h before harvest
Sequence (P06401 whole entry): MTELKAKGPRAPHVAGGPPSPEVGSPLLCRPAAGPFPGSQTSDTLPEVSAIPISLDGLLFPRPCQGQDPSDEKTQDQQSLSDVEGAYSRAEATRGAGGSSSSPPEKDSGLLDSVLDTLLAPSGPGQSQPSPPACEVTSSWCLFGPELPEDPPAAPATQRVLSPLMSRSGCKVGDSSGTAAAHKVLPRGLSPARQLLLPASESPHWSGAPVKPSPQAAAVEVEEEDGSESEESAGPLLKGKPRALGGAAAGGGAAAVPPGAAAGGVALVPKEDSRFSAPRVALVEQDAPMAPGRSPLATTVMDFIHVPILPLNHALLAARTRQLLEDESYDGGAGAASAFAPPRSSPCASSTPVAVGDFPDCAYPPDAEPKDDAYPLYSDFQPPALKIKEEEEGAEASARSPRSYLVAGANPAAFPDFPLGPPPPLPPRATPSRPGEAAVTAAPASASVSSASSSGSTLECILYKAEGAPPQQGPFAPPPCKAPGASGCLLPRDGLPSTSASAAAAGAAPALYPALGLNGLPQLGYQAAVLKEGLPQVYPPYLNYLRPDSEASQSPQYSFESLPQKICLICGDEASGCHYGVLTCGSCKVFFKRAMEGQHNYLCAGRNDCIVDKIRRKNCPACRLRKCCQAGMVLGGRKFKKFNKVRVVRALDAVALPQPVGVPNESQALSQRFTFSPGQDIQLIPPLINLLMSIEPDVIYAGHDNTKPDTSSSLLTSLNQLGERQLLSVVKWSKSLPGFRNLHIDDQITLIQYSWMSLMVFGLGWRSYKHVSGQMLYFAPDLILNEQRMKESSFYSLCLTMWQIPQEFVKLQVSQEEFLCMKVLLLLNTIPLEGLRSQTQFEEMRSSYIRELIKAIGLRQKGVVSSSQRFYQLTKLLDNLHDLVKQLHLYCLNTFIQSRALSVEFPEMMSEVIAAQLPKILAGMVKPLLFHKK
Experiment: Competitive binding of test compounds vs 3H-R5020 to the progesterone receptor (MCF-7 cytosol)
Conditions: compared with 20-oxopregnacalciferol where stated
reported-endpoint: binding to the PR (in words)

input_smiles=C[C@H](CO)[C@H]1CC[C@H]2/C(=C/C=C3CCCCC3)CCC[C@]12C result="did also bind to the PR"
input_smiles=C[C@H](C=O)[C@H]1CC[C@H]2/C(=C/C=C3CCCCC3)CCC[C@]12C result="did also bind to the PR"
